MEASUREMENT TARGET: Fatty acid synthase (Homo sapiens) (UniProt P49327)
Sequence (P49327 whole entry, looked up): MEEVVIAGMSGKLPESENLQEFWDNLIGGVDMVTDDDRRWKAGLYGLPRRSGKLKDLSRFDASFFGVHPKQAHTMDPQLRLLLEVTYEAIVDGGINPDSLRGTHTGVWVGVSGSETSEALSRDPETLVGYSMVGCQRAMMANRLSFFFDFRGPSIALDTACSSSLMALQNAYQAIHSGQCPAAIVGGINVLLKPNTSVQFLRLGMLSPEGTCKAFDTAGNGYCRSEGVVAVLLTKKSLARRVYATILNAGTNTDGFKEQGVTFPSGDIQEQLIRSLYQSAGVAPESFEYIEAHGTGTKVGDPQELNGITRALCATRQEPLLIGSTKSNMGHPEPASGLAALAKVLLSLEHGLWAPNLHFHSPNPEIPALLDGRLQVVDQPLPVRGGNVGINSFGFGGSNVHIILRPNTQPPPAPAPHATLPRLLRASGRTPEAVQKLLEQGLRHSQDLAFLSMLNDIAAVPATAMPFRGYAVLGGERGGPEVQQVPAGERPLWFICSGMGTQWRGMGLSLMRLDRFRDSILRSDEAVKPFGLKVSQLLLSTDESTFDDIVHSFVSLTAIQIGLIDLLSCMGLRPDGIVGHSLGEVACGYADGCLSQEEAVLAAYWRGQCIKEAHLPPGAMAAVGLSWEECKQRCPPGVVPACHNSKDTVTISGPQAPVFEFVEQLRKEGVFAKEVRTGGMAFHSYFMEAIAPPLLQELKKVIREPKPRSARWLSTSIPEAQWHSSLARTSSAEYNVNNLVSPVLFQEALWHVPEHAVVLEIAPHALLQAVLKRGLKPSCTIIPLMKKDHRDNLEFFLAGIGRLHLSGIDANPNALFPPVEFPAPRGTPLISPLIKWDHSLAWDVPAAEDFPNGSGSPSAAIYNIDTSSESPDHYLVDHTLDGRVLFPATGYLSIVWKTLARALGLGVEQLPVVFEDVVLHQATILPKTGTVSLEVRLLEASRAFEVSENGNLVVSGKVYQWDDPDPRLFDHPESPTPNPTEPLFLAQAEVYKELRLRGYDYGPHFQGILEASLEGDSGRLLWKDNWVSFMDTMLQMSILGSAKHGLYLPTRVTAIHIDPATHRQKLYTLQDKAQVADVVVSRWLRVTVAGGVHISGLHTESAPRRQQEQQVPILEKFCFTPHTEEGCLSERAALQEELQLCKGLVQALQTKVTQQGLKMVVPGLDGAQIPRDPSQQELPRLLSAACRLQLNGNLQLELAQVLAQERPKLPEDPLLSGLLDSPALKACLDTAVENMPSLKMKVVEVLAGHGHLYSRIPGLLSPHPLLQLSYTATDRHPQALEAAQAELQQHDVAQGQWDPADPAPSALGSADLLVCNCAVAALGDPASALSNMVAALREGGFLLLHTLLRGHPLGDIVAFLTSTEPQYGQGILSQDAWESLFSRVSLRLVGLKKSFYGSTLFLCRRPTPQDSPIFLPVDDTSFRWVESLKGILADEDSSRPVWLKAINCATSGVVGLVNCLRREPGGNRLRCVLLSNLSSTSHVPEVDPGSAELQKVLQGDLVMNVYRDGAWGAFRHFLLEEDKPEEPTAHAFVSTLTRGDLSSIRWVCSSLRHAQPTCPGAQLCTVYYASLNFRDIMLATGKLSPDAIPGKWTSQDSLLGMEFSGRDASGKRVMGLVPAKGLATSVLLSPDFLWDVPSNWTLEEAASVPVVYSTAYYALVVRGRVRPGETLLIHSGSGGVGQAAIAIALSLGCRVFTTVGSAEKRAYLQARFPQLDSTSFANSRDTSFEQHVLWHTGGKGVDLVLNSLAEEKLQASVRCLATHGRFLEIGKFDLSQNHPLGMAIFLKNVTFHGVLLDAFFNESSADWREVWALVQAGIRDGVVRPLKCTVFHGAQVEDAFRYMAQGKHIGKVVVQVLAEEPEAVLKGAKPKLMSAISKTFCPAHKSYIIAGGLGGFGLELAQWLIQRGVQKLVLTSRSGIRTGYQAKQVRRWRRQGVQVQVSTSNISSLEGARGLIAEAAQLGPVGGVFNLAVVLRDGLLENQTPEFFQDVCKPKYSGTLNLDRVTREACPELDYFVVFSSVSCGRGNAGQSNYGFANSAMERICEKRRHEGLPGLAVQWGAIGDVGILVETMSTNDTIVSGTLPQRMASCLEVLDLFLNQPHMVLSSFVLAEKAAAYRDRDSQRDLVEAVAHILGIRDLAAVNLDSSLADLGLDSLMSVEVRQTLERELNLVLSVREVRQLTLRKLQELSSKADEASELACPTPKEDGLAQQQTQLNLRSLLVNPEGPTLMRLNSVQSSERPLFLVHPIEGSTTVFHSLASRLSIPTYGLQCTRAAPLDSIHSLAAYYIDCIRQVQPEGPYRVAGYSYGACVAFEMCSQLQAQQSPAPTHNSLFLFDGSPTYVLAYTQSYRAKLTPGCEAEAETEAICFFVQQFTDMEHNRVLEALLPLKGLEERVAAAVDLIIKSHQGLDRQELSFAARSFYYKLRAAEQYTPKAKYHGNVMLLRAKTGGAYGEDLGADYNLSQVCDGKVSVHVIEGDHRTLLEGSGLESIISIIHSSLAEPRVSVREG
ASSAY INFO: inhibition of human FAS-TE enzyme activity – biochemical, fluorescence intensity, uHTS, primary screen (AID 602261);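 also: 0% = DMSO with enzyme and 100% = substrate without enzyme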
CONDITION: recombinant FAS-TE, OMFH fluorogenic substrate, fluorescence endpoint; at 15 µM; stronger effect = higher value
Among all 360,000 compounds or so, about 2,400 (0.67%) were called active. For the sample, actives were picked, then their nearest neighbours and some compounds at random.
// values below are reported inhibition

{"columns": ["COMPOUND", "OBSERVED"],
 "data": [
  ["Nc1nnnn1/N=C/c1cc([N+](=O)[O-])ccc1O", "-3.3% (inactive)"],
  ["Cc1ccc(C)c(Cn2nnc3c(=O)[nH]c(C(=O)Nc4ccc(F)cc4)nc32)c1", "3.8% (inactive)"],
  ["COc1cc(/C=C(/NC(=O)c2ccccc2)C(=O)Nc2cccc(O)c2)c([N+](=O)[O-])cc1OC", "-3.8% (inactive)"],
  ["COc1ccc([N+](=O)[O-])cc1NC(=O)c1ccc(N(Cc2ccccc2C)S(C)(=O)=O)cc1", "62.6% (active)"],
  ["COc1ccc(NC(=O)/C(Cl)=C(/Cl)S(=O)Cc2ccc(C)cc2)cn1 (centres undefined)", "53.3% (active)"],
  ["Cc1cccc(CN2CCC(CNC(=O)Nc3ccc(F)c(Cl)c3)CC2)c1", "2.9% (inactive)"],
  ["COc1cccc(NC(=S)N(Cc2ccc(C)cc2)Cc2ccccn2)c1", "5.4% (inactive)"],
  ["C#CCN(C[C@@H]1[C@@H](OC(=O)NC2CC2)[C@@H](OC(=O)NC2CC2)Cn2c(=O)ccc(=O)n21)S(=O)(=O)c1ccc(C)cc1", "-8% (inactive)"]
]}

For the record C#CCN(C[C@H]1[C@H](OC(=O)NC2CCCC2)[C@H](OC(=O)NC2CCCC2)C[C@H]2C(=O)N(c3ccccc3)C(=O)[C@@H]12)S(=O)(=O)c1ccc(C)cc1 , what value of inhibition is listed for Fatty acid synthase (Homo sapiens) (UniProt P49327)?
69.1% (active)

Likewise for CCc1cc(CNC(=O)CC2C(=O)NCCN2Cc2ccccc2C(F)(F)F)on1 (centres undefined) ?
-2.9% (inactive)

Likewise for Cc1ccc(N2C(=O)C3C(c4ccccc4)(C2=O)C3(c2ccccc2)c2ccccc2)cc1 (centres undefined) ?
80.8% (active)

Likewise for Cc1ccc(S(=O)(=O)N2C[C@]3(O)C[C@@H]4C(=O)N(c5ccccc5)C(=O)[C@@H]4C[C@]3(OC(=O)NC3CC3)C2)cc1 ?
5.3% (inactive)

Likewise for CCN(c1ccccc1)S(=O)(=O)c1ccc(C(=O)Nc2ccccc2OC)cc1 ?
19.5% (inactive)

====

MEASUREMENT TARGET: Fatty acid synthase (Homo sapiens)
ASSAY INFO: inhibition of human FAS-TE enzyme activity – biochemical, fluorescence intensity, uHTS, primary screen (AID 602261);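 also: 0% = DMSO with enzyme and 100% = substrate without enzyme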
CONDITION: recombinant FAS-TE, OMFH fluorogenic substrate, fluorescence endpoint; at 15 µM
Screen size: about 360,000 compounds; about 2,400 (0.67%) were called active.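 Rule for the calls: active = compounds whose normalised, plate-corrected inhibition of enzyme fluorescence in the single-dose primary screen is 50% or more; inactive = the rest.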 The sample holds actives, similar compounds and a random draw of the others, so the mix is not that of the screen.
Choose the fitting class; nothing outside True for active, False for inactive is accepted.

{"columns": ["MOLECULE", "ASSIGNED CATEGORY"],
 "data": [
  ["CC1(c2ccc(Cl)cc2)NC(=O)N(CC(=O)c2ccc3c(c2)OCO3)C1=O (stereo unspecified)", "False"]
]}

For this molecule, state the assay outcome: O=C(CCl)N(Cc1cccc([N+](=O)[O-])c1)c1cccc(Cl)c1
False

Likewise for Cc1ccc(S(=O)(=O)N(CC(O)CN2CCCCC2)c2cccc([N+](=O)[O-])c2)cc1 (stereo unspecified) ?
False

Likewise for CC1CN(C(=O)c2cc(COc3c(F)cccc3F)on2)CCN1C (stereo unspecified) ?
False

Likewise for O=C(c1ccc(Cl)c([N+](=O)[O-])c1)N1CCN(c2ccccc2)CC1 ?
True

Likewise for CCCCCCN1CCN(C2CN(Cc3cn(Cc4ccc(F)cc4)nn3)S(=O)(=O)C2)CC1 (stereo unspecified) ?
False

Likewise for CCOc1ccc(Br)cc1S(=O)(=O)Nc1cccc(S(=O)(=O)N(CC)CC)c1 ?
False

Likewise for Cc1cccc(Nc2nc3c(S(=O)(=O)c4ccccc4)nnn3c3ccccc23)c1C ?
False

Likewise for COc1ccc([N+](=O)[O-])cc1N(CC(O)CN(CC(C)C)CC(C)C)S(=O)(=O)c1ccc(C)cc1 (stereo unspecified) ?
False

Likewise for Cc1nc2c(OCc3cccc(Cl)c3)cccn2c1N(C)CC1CC1 ?
False

Likewise for CC(C)(O)C#Cc1ncc(C(F)(F)F)cc1Cl ?
False

Likewise for O=C(c1ccc(Oc2ccc(Cl)cc2)c([N+](=O)[O-])c1)N1CCCC1 ?
False
